# Tested on: DU-145 prostate
# protocol description: NCI-60 one-dose screen, 48 h
# particulars: 10 µM unless noted
The panel holds about 83,000 compounds, 20% with a hit somewhere; the sample as a whole holds those more often. The source made the active and inactive calls. How the source made its calls: active means growth percent below 10; inactive means the rest.
Log the outcome using a class from 1 = active, 0 = inactive

# input Which outcome did this test record for the molecule CN1C(=O)C2(C(C#N)=C(c3ccc(Cl)cc3)Nc3c2c(-c2ccccc2)nn3-c2ccccc2)c2ccccc21 (stereo not drawn) ?
# output 0

# input Which outcome did this test record for the molecule O=C(NNC(=O)c1ccc(OCc2nc3ccc(Cl)cc3[nH]2)cc1)Nc1ccc(Cl)c(Cl)c1 ?
# output 0

# input Which outcome did this test record for the molecule COc1cc(CNC(=O)[C@]23CCC(C)(C)CC2C2=CCC4[C@@]5(C)CCC(OC(C)=O)C(C)(C)C5CC[C@@]4(C)[C@]2(C)CC3)ccc1OCc1cn(-c2ccc(Cl)cc2Cl)nn1 (stereo partly drawn) ?
# output 0

# input Which outcome did this test record for the molecule C[C@H]1[C@@H](CC(=O)N[C@@H](Cc2coc3ccccc23)B(O)O)O[C@@H]2OC3(C)CC[C@H]4[C@H](C)CC[C@@H]1[C@@]24O3 ?
# output 0

# input Which outcome did this test record for the molecule COc1ccc(N=Nc2c(N)nn3c(-c4ccc5c(c4)C=S=C5)ccnc23)cc1 ?
# output 0

# input Which outcome did this test record for the molecule COc1ccc2[nH]c(O)c(N=Nc3nc(-c4ccc(Cl)cc4)cs3)c2c1 ?
# output 1

# input Which outcome did this test record for the molecule COc1ccc(Nc2nnc(-c3c[nH]c4ccccc34)o2)cc1 ?
# output 0

# input Which outcome did this test record for the molecule COc1cc(C2C(C(=O)OCc3ccccc3)=C(C)Nc3nc4ccccc4n32)cc(OC)c1OC (stereo not drawn) ?
# output 0
